- System: L1210 leukemia ip in BDF1 mice, survival T/C
- assay-remarks: NCI In Vivo Anticancer Drug Screen. Data for tumor model L1210 Leukemia (intraperitoneal) in B6D2F1 (BDF1) mice
- measurement-setup: endpoint: mean survival time; dose: 100.0 mg/kg/injection; schedule: Q01DX001 (ip); vehicle: other; higher = longer survival
Inconclusive results and toxic doses are left out.
quantity-kind: T/C

# molecule, result
measured = [
    ("CC(=O)OCC1OC(OC(C)=O)C(NC(=O)NCCCl)C(OC(C)=O)C1OC(C)=O (configuration not stated)", "97 % of control"),
    ("O=C(Oc1ccc([N+](=O)[O-])cc1)c1ccccc1S(=O)OCCc1ccccc1 (configuration not stated)", "92 % of control"),
    ("CNC(=O)OCCOC(=O)c1ccc(OC(=O)NC)cc1", "94 % of control"),
    ("Cc1ccc(C(=O)CCCC(=O)c2ccc(C)cc2)cc1", "91 % of control"),
    ("ClCc1nc2ccc(Cl)cc2[nH]1", "104 % of control"),
    ("CCOC(=O)C(c1ccccc1)N(c1ccccc1)S(=O)(=O)c1ccc(C)cc1 (configuration not stated)", "116 % of control"),
    ("CCOc1ccc(NC(=O)N(O)C2(C#N)CCCCC2)cc1", "93 % of control"),
]
